Each recorded value in this set is attributed to patent US20150086574A1.

Entries annotated with measured % Positive for TIM3
Biological target: T1, T cell Immunoglobulin- and Mucin domain-containing molecule 3 (TIM3), human, on cells (human, UniProt Q8TDQ0 22-301)
T1 construct: TIM3 as carried by human cell lines (Pfeiffer, Daudi, CMK) and by primary cells of patients; also called HAVCR2; KIM-3
T1 sequence: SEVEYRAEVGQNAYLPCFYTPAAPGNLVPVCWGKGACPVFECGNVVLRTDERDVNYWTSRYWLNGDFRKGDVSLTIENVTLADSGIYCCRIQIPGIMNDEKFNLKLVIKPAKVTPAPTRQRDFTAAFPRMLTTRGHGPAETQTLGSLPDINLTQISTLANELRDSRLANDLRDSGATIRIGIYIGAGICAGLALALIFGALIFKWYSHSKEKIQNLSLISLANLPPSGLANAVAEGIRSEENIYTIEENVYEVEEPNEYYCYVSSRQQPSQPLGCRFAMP
Test: flow cytometry; cells not named in the table (Example 5 uses Pfeiffer cells)
value-type: % Positive for TIM3 (%)

- binder: "27.12E12-Biotin (antibody, V domains shown, 27.12E12 (mouse IgG2b,k) biotinylated) VH: EVQLQQSGAELVRPGALVKLSCKASGFNIKDYYMYWMKQRPEQGLEWIGWIDPENVKTIYDPKFQGRATLTADTSSNTAYLQLSSLTSEDTAVYYCTRDFGYVGFFDVWGAGTTVTVSS VL: DIVMTQSQKFMSTSVGDRVSVNCKASQNVGTNVVWYQQKPGQSPKALIYSASYRYSGVPDRFTGSGSGTDFTLTISTVQSEDLAEYFCQQYNSYPLTFGGGTKLEIKR"
  result-number: 96.8
- binder: "1.7E10.12-BZAP (antibody, V domains shown, Biotinylated 1.7E10 (mouse IgG1,k) conjugated to streptavidin-saporin (SAv-ZAP)) VH: EVKLLESGGGLVQPGGSLKLSCAASGFDFSRYWMSWVRQAPGKGLEWIGEINPDSSTINYTPSLKDKFIISRDNAKNTLFLQMSKVRSEDTALYYCARPSYDGYYGYAMDYWGQGTSVTVSS VL: DIVLTQSPASLAVSLGQRATISCRASESVDSYGKSFMHWYQQKPGQPPKLLIYRASNLESGIPARFSGSGSRTDFTLTINPVEADDVATYYCQQSNEDPYTFGGGTKLEIKR"
  result-number: 99.3
- binder: "6.14B9-BZAP (antibody, V domains shown, Biotinylated 6.14B9 (mouse IgG1,k) conjugated to streptavidin-saporin (SAv-ZAP)) VH: DVQLQESGPGLVKPSQSLSLTCTVTGYSITSDYAWNWIRQFPGNKLEWMGYISYSGSISYNPSLKSRISITRDTSKNQFFLQLNSVTTEDTATYYCARSGRLRRDFDYWGQGTTLT VL: DIQMTQSPSSLSASLGERVSLTCRASQEISGYLSWLQQKPDGTIKRLIYAASTLDSGVPKRFSGSRSGSDYSLTISSLESEDFADYYCLQYASYPLTFGAGTKLELK"
  result-number: 43.9
- binder: "27.12E12-BZAP (antibody, V domains shown, Biotinylated 27.12E12 (mouse IgG2b,k) conjugated to streptavidin-saporin (SAv-ZAP)) VH: EVQLQQSGAELVRPGALVKLSCKASGFNIKDYYMYWMKQRPEQGLEWIGWIDPENVKTIYDPKFQGRATLTADTSSNTAYLQLSSLTSEDTAVYYCTRDFGYVGFFDVWGAGTTVTVSS VL: DIVMTQSQKFMSTSVGDRVSVNCKASQNVGTNVVWYQQKPGQSPKALIYSASYRYSGVPDRFTGSGSGTDFTLTISTVQSEDLAEYFCQQYNSYPLTFGGGTKLEIKR"
  result-number: 98.8
- binder: "6.14B9-Biotin (antibody, V domains shown, 6.14B9 (mouse IgG1,k) biotinylated) VH: DVQLQESGPGLVKPSQSLSLTCTVTGYSITSDYAWNWIRQFPGNKLEWMGYISYSGSISYNPSLKSRISITRDTSKNQFFLQLNSVTTEDTATYYCARSGRLRRDFDYWGQGTTLT VL: DIQMTQSPSSLSASLGERVSLTCRASQEISGYLSWLQQKPDGTIKRLIYAASTLDSGVPKRFSGSRSGSDYSLTISSLESEDFADYYCLQYASYPLTFGAGTKLELK"
  result-number: 48.2
- binder: "9.1G12.8-Biotin (antibody, V domains shown, 9.1G12 (mouse IgG2b,l) biotinylated) VH: EVMLVESGGGLVKPGGSLKLSCAASGFTFSSYAMSWVRQTPERKLEWVATISSGGTYTYYPDSVKGRFTISRDNAKNRLYLQMSGLRSEGTAMYYCVRPDYTHDDGGFAYWGQGTLVTVSA VL: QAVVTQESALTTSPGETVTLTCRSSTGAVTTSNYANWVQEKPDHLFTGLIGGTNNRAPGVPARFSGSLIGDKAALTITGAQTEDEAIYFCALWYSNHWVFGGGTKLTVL"
  result-number: 55.4
